# System tested: Adenosine receptor A2a (Homo sapiens)
# Sequence (P29274 whole entry): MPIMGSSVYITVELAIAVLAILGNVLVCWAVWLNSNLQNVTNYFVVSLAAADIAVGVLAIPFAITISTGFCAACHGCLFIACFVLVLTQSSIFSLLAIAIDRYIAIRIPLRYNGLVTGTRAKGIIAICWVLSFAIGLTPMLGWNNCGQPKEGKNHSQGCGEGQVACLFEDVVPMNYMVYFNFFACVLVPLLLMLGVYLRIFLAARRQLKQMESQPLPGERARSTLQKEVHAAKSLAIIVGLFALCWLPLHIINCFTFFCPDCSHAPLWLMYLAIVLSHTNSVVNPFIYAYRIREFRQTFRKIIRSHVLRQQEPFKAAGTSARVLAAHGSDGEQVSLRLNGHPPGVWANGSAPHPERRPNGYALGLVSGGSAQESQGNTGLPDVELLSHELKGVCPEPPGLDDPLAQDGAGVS
# Experimental protocol: Displacement of [3H]-NECA from human recombinant adenosine A2A receptor transfected in CHO cells
Each record is given 1.0 if its reported Ki is strictly below 600 nM. Records at or above 600 nM are given 0.0.

{"Compound": "CCn1nnc([C@H]2O[C@@H](n3cnc4c(N[C@H]5C[C@@H]6CC[C@@H]5C6)ncnc43)[C@H](O)[C@@H]2O)n1 (racemic)", "System tested": "Adenosine receptor A2a (Homo sapiens)", "Assigned class": 1.0}
{"Compound": "CCn1nnc([C@H]2O[C@@H](n3cnc4c(NC5CCCO5)ncnc43)[C@H](O)[C@@H]2O)n1 (stereo partly drawn)", "System tested": "Adenosine receptor A2a (Homo sapiens)", "Assigned class": 1.0}
{"Compound": "CCn1nnc([C@H]2O[C@@H](n3cnc4c(NCc5ccccc5I)nc(Cl)nc43)[C@H](O)[C@@H]2O)n1", "System tested": "Adenosine receptor A2a (Homo sapiens)", "Assigned class": 1.0}
{"Compound": "CCn1nnc([C@H]2O[C@@H](n3cnc4c(NC)nc(Cl)nc43)[C@H](O)[C@@H]2O)n1", "System tested": "Adenosine receptor A2a (Homo sapiens)", "Assigned class": 0.0}
{"Compound": "CCn1nnc([C@H]2O[C@@H](n3cnc4c(NC5CC5)nc(Cl)nc43)[C@H](O)[C@@H]2O)n1", "System tested": "Adenosine receptor A2a (Homo sapiens)", "Assigned class": 1.0}
{"Compound": "CCn1nnc([C@H]2O[C@@H](n3cnc4c(NC5CC5)ncnc43)[C@H](O)[C@@H]2O)n1", "System tested": "Adenosine receptor A2a (Homo sapiens)", "Assigned class": 1.0}
{"Compound": "CCn1nnc([C@H]2O[C@@H](n3cnc4c(N)ncnc43)[C@H](O)[C@@H]2O)n1", "System tested": "Adenosine receptor A2a (Homo sapiens)", "Assigned class": 1.0}
{"Compound": "CCn1nnc([C@H]2O[C@@H](n3cnc4c(NC5CCCO5)nc(Cl)nc43)[C@H](O)[C@@H]2O)n1 (stereo partly drawn)", "System tested": "Adenosine receptor A2a (Homo sapiens)", "Assigned class": 0.0}
